Below, each entry is listed with its recorded IC50.
test system: Plasmodium falciparum; experiment: Antiplasmodial activity against Plasmodium falciparum W2; type: functional, organism-based
result type: IC50

[[record]]
structure_notation = "CC[C@H](CC[C@@H](C)[C@H]1CC[C@H]2[C@@H]3CC=C4C[C@@H](O)CC[C@]4(C)[C@H]3CC[C@]12C)C(C)C"
experimental_value = "> 50 µM"

[[record]]
structure_notation = "C=C1C(CCO)=CC(=O)[C@H]2[C@H]1CC[C@H]1C(C)(C)CCC[C@]21C"
experimental_value = "22.8 µM"

[[record]]
structure_notation = "CC[C@H](/C=C/[C@@H](C)[C@H]1CC[C@H]2[C@@H]3CC=C4C[C@@H](O)CC[C@]4(C)[C@H]3CC[C@]12C)C(C)C"
experimental_value = "> 50 µM"

